Would you kindly list MIC for each of these compounds?
- Test system: Mycobacterium tuberculosis
- protocol_notes: Antimycobacterial activity against Mycobacterium tuberculosis CNTC My 331/88 ATCC 27294 after 21 days
- Type: functional
- experimental_context: CNTC My 331/88 ATCC 27294, 504 h
Answers are plain numbers, in µM.

Record excerpt, results attached:
Prompt: Tell me the measured MIC of `O=C(N/N=C/Nc1ccc(C(F)(F)F)cc1)c1ccncc1` , please.
Response: 2

Prompt: Tell me the measured MIC of `O=C(N/N=C/Nc1ccc(Cl)cc1O)c1ccncc1` , please.
Response: 4

Prompt: Tell me the measured MIC of `O=C(N/N=C/Nc1ccc(Br)cc1)c1ccncc1` , please.
Response: 4

Prompt: Tell me the measured MIC of `COc1cccc(N/C=N/NC(=O)c2ccncc2)c1` , please.
Response: 2

Prompt: Tell me the measured MIC of `O=C(N/N=C/Nc1cccc(F)c1)c1ccncc1` , please.
Response: 1

Prompt: Tell me the measured MIC of `O=C(N/N=C/Nc1ccc(F)c(F)c1)c1ccncc1` , please.
Response: 2

Continue with the next compound.
Prompt: Tell me the measured MIC of `NNC(=O)c1ccncc1` , please.
Response: 1

----------
- System: Mycobacterium tuberculosis
- protocol_notes: Antimycobacterial activity against Mycobacterium tuberculosis CNTC My 331/88 ATCC 27294 after 21 days
- Assay type: functional
- experimental_context: CNTC My 331/88 ATCC 27294, 504 h
Would you kindly list MIC for each of these molecules?
One number for each entry, in µM.

Prompt: Param readout= MIC; system= Mycobacterium tuberculosis; entry= `O=C(N/N=C/Nc1ccc(Cl)cc1)c1ccncc1` ; returns value.
Response: 1

For every item below, please supply its MIC.
1. O=C(N/N=C/Nc1ccc(Br)c(F)c1)c1ccncc1
2. O=C(N/N=C/Nc1ccc(F)cc1)c1ccncc1
3. O=C(N/N=C/Nc1cccc(Cl)c1)c1ccncc1
4. COc1ccc(N/C=N/NC(=O)c2ccncc2)cc1

Response:
1: 1; 2: 2; 3: 1; 4: 4

For every item below, please supply its MIC.
1. O=C(N/N=C/Nc1ccc(O)cc1)c1ccncc1
2. O=C(N/N=C/Nc1cc(Cl)ccc1O)c1ccncc1
3. O=C(N/N=C/Nc1cccc(Br)c1)c1ccncc1
4. O=C(N/N=C/Nc1cccc([N+](=O)[O-])c1)c1ccncc1
5. O=C(N/N=C/Nc1ccc(Cl)c(Cl)c1)c1ccncc1
6. O=C(N/N=C/Nc1ccc(F)c(Cl)c1)c1ccncc1
7. O=C(N/N=C/Nc1cccc(C(F)(F)F)c1)c1ccncc1
8. O=C(N/N=C/Nc1cccc(O)c1)c1ccncc1

Response:
8
2
1
2
2
2
1
2

----------
- Test system: Mycobacterium kansasii
- protocol_notes: Antimycobacterial activity against Mycobacterium kansasii 6509/96 isolate after 7 days
- Type: functional
- experimental_context: 6509/96, 168 h
measured_endpoint: MIC (µM)
Numbers only, in µM.

Prompt: Tell me the measured MIC of `O=C(N/N=C/Nc1ccc(Cl)cc1)c1ccncc1` , please.
Response: 16

For every item below, please supply its MIC.
1. O=C(N/N=C/Nc1cccc(Cl)c1)c1ccncc1
2. O=C(N/N=C/Nc1ccc(Br)c(F)c1)c1ccncc1
3. O=C(N/N=C/Nc1ccc(Cl)c(Cl)c1)c1ccncc1

Response:
[16, 8, 8]

For every item below, please supply its MIC.
1. NNC(=O)c1ccncc1
2. O=C(N/N=C/Nc1cccc(F)c1)c1ccncc1
3. O=C(N/N=C/Nc1cccc(C(F)(F)F)c1)c1ccncc1
4. O=C(N/N=C/Nc1cccc([N+](=O)[O-])c1)c1ccncc1
5. O=C(N/N=C/Nc1cccc(Br)c1)c1ccncc1
6. COc1cccc(N/C=N/NC(=O)c2ccncc2)c1

Response:
1: 2; 2: 16; 3: 16; 4: 8; 5: 8; 6: 16

For every item below, please supply its MIC.
1. O=C(N/N=C/Nc1cc(Cl)ccc1O)c1ccncc1
2. O=C(N/N=C/Nc1ccc(C(F)(F)F)cc1)c1ccncc1
3. O=C(N/N=C/Nc1ccc(Br)cc1)c1ccncc1

Response:
1. 8
2. 32
3. 32

----------
- System: Mycobacterium avium
- protocol_notes: Antimycobacterial activity against Mycobacterium avium CNTC My 330/88 after 21 days
- Format: functional
- experimental_context: CNTC My 330/88, 504 h
measured_endpoint: MIC (µM)
One number for each entry, in µM.

Prompt: Tell me the measured MIC of `O=C(N/N=C/Nc1ccc(Br)cc1)c1ccncc1` , please.
Response: 500

Prompt: Tell me the measured MIC of `O=C(N/N=C/Nc1cccc([N+](=O)[O-])c1)c1ccncc1` , please.
Response: 500

Prompt: Tell me the measured MIC of `O=C(N/N=C/Nc1cccc(C(F)(F)F)c1)c1ccncc1` , please.
Response: 1000

For every item below, please supply its MIC.
1. O=C(N/N=C/Nc1cc(Cl)ccc1O)c1ccncc1
2. O=C(N/N=C/Nc1ccc(Cl)c(Cl)c1)c1ccncc1
3. O=C(N/N=C/Nc1cccc(Br)c1)c1ccncc1

Response:
[500, 250, 500]

----------
Would you kindly list MIC for each of these compounds?
- System: Mycobacterium avium
- protocol_notes: Antimycobacterial activity against Mycobacterium avium CNTC My 330/88 after 14 days
- Type: functional
- experimental_context: CNTC My 330/88, 336 h

Prompt: Tell me the measured MIC of `COc1ccc(N/C=N/NC(=O)c2ccncc2)cc1` , please.
Response: 500 µM

Prompt: Tell me the measured MIC of `O=C(N/N=C/Nc1ccc(Br)cc1)c1ccncc1` , please.
Response: 500 µM

Prompt: Tell me the measured MIC of `O=C(N/N=C/Nc1cccc(Br)c1)c1ccncc1` , please.
Response: 250 µM

Prompt: Tell me the measured MIC of `O=C(N/N=C/Nc1ccc(F)cc1)c1ccncc1` , please.
Response: 250 µM

Prompt: Tell me the measured MIC of `O=C(N/N=C/Nc1cccc(Cl)c1)c1ccncc1` , please.
Response: 500 µM

For every item below, please supply its MIC.
1. O=C(N/N=C/Nc1ccc(C(F)(F)F)cc1)c1ccncc1
2. O=C(N/N=C/Nc1ccc(F)c(F)c1)c1ccncc1

Response:
1: 500 µM; 2: 250 µM

For every item below, please supply its MIC.
1. O=C(N/N=C/Nc1ccc(Cl)cc1O)c1ccncc1
2. O=C(N/N=C/Nc1cccc([N+](=O)[O-])c1)c1ccncc1
3. O=C(N/N=C/Nc1ccc(Cl)cc1)c1ccncc1
4. O=C(N/N=C/Nc1cccc(F)c1)c1ccncc1
5. O=C(N/N=C/Nc1cc(Cl)ccc1O)c1ccncc1

Response:
1: 250 µM; 2: 250 µM; 3: 500 µM; 4: 500 µM; 5: 500 µM

For every item below, please supply its MIC.
1. O=C(N/N=C/Nc1cccc(O)c1)c1ccncc1
2. O=C(N/N=C/Nc1ccc(O)cc1)c1ccncc1
3. O=C(N/N=C/Nc1ccc(Cl)c(Cl)c1)c1ccncc1
4. O=C(N/N=C/Nc1cccc(C(F)(F)F)c1)c1ccncc1
5. O=C(N/N=C/Nc1ccc(Br)c(F)c1)c1ccncc1
6. NNC(=O)c1ccncc1

Response:
["500 µM", "500 µM", "250 µM", "500 µM", "250 µM", "> 250 µM"]

For every item below, please supply its MIC.
1. COc1cccc(N/C=N/NC(=O)c2ccncc2)c1
2. O=C(N/N=C/Nc1ccc(F)c(Cl)c1)c1ccncc1

Response:
1. 500 µM
2. 250 µM

----------
Would you kindly list MIC for each of these molecules?
- Test system: Mycobacterium kansasii
- protocol_notes: Antimycobacterial activity against Mycobacterium kansasii CNTC My 335/80 after 7 days
- Type: functional
- experimental_context: 168 h

Record excerpt, results attached:
Prompt: Tell me the measured MIC of `O=C(N/N=C/Nc1cccc(F)c1)c1ccncc1` , please.
Response: 125 µM

Prompt: Tell me the measured MIC of `O=C(N/N=C/Nc1ccc(F)c(F)c1)c1ccncc1` , please.
Response: 250 µM

Prompt: Tell me the measured MIC of `O=C(N/N=C/Nc1cccc([N+](=O)[O-])c1)c1ccncc1` , please.
Response: 125 µM

Prompt: Tell me the measured MIC of `O=C(N/N=C/Nc1ccc(Cl)c(Cl)c1)c1ccncc1` , please.
Response: 250 µM

For every item below, please supply its MIC.
1. O=C(N/N=C/Nc1ccc(Br)c(F)c1)c1ccncc1
2. O=C(N/N=C/Nc1ccc(Cl)cc1O)c1ccncc1

Response:
62.5 µM
250 µM

----------
- System: Mycobacterium kansasii
- protocol_notes: Antimycobacterial activity against Mycobacterium kansasii 6509/96 isolate after 7 days
- Assay type: functional
- experimental_context: 6509/96, 168 h
Would you kindly list MIC for each of these compounds?
Numbers only, in µM.

Record excerpt, results attached:
Prompt: Tell me the measured MIC of `O=C(N/N=C/Nc1cccc(O)c1)c1ccncc1` , please.
Response: 16

Prompt: Tell me the measured MIC of `COc1ccc(N/C=N/NC(=O)c2ccncc2)cc1` , please.
Response: 16

For every item below, please supply its MIC.
1. O=C(N/N=C/Nc1ccc(F)c(Cl)c1)c1ccncc1
2. O=C(N/N=C/Nc1ccc(F)c(F)c1)c1ccncc1
3. O=C(N/N=C/Nc1ccc(F)cc1)c1ccncc1
4. O=C(N/N=C/Nc1ccc(Cl)cc1O)c1ccncc1
5. O=C(N/N=C/Nc1ccc(O)cc1)c1ccncc1

Response:
[16, 8, 8, 16, 32]

These measurements were taken from ChEMBL document CHEMBL1909504.
